Sequence of the target: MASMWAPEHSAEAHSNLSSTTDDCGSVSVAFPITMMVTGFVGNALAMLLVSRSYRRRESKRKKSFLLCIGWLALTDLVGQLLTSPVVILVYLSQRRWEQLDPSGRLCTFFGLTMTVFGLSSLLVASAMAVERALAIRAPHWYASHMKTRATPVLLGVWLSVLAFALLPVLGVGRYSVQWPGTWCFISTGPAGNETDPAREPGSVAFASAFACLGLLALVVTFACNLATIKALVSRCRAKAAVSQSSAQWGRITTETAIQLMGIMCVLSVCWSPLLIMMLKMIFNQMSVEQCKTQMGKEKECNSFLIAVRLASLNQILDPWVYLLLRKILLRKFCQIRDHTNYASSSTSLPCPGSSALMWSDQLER
Each entry below carries its reported Ki.

INSERT INTO assay_data (compound, endpoint, endpoint_result) VALUES
  ('O=C(O)c1ccc(CC[C@H]2C(=O)C[C@@H](O)[C@@H]2/C=C/CC(O)C2(CC3CC3)CCC2)cc1 (single isomer, unassigned) [Example 2(b)]', 'Ki', '> 10 µM'),
  ('C=CCC1(C(O)C/C=C/[C@H]2[C@H](O)CC(=O)[C@@H]2CCc2ccc(C(=O)O)cc2)CCC1 (single isomer, unassigned) [Example 2(a)]', 'Ki', '> 10 µM');

Now for the compound whose Ki we want.
Qu. # input compound: O=C(O)c1ccc(CSC2C(=O)C[C@@H](O)[C@@H]2/C=C/CC(O)C2(CC3CC3)CCC2)cc1 (stereo partly drawn) [Example 5(d)] ; wanted: its Ki
Ans. > 10 µM

---

- Tested Target: mouse EP4 (Mus musculus, UniProt P32240)
- Sequence (P32240 whole entry): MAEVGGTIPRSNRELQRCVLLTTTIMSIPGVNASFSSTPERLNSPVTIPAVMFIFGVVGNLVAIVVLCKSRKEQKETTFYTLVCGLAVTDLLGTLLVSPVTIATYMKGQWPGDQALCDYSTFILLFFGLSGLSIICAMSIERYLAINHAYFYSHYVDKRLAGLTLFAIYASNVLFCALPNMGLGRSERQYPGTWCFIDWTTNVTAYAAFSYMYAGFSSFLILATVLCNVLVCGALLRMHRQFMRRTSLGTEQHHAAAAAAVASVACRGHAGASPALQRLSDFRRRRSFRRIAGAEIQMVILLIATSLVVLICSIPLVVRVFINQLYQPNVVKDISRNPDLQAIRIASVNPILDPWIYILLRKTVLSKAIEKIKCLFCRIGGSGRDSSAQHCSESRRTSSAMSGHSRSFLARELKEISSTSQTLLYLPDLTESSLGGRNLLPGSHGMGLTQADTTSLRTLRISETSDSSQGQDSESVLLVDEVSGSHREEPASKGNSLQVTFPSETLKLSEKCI
Endpoint: Ki (nM)
Numbers only; they are read as nM.

INSERT INTO results (compound, endpoint, endpoint_result) VALUES
  ('C=CCC1(C(O)C/C=C/[C@@H]2C(SCc3ccc(C(=O)O)cc3)C(=O)C[C@H]2O)CCC1 (stereo partly drawn)', 'Ki', 1500);

Qu. I'm curious: which Ki was measured for O=C(O)c1ccc(CSC2C(=O)C[C@@H](O)[C@@H]2/C=C/CC(O)C2(CC3CC3)CCC2)cc1 (stereo partly drawn) tested on mouse EP4 (Mus musculus, UniProt P32240)?
Ans. 310

---

- Tested Target: mouse EP2 (Mus musculus, UniProt Q62053)
- Sequence (Q62053 whole entry): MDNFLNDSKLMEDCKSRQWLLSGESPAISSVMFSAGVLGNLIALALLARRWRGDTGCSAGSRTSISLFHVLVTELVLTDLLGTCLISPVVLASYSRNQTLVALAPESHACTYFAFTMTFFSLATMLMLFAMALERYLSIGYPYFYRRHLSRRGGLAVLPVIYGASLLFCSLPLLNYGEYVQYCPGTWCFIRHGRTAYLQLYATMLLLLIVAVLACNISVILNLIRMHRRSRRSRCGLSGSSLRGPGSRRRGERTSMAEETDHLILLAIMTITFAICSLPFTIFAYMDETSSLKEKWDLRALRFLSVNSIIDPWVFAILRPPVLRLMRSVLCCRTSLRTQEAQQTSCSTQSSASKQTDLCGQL
Endpoint: pKi
pKi is defined as minus the log10 of a concentration measured in mol/L.

Qu. Data request, read-out pKi, for C=CCC1(C(O)C/C=C/[C@H]2[C@H](O)CC(=O)[C@@H]2CCc2ccc(C(=O)O)cc2)CCC1 (single isomer, unassigned)
Ans. 8.01

The reported numbers originate from patent US6262293A.
